These data points were gathered from patent US10183030B2.

pIC50 overview
tested on: MiaPaca2 (AR low) pancreatic cancer cells; test: ATP-dependent proliferation/viability assay, MiaPaca2; type: cell-based; conditions: Homo sapiens, MIA PaCa-2, 72 h, MiaPaca2; Tables I and II; unit inferred; titrated from 3 uM to 200 uM; 3 days; read-out: IC50
Scale: negative log10 of molar concentration, which is what pIC50 denotes.

Below, 3 compounds whose answers are already recorded.
Compound	Result
CCCCC(=O)O[C@]1(C(=O)CO)CC[C@H]2[C@@H]3CCC4=CC(=O)CC[C@]4(C)[C@H]3CC[C@@]21C [CB-03-05, cortexolone 17α-valerate]	4.23
CCC(=O)O[C@]1(C(=O)CO)CC[C@H]2[C@@H]3CCC4=CC(=O)CC[C@]4(C)[C@H]3CC[C@@]21C [CB-03-01]	3.96
CC(=O)O[C@]1(C(C)=O)CC[C@H]2[C@@H]3C=C(Cl)C4=CC(=O)[C@@H]5C[C@@H]5[C@]4(C)[C@H]3CC[C@@]21C [Cyproterone Acetate, Cyproterone acetate, reference compound]	4.41

Item: CCCC(=O)OC1(C(=O)CO)CCC2C3CCC4=CC(=O)CC[C@]4(C)C3=CC[C@@]21C (single isomer, unassigned) [CB-03-04] | pIC50: 3.80

---

test system: MiaPaca2 (AR low) pancreatic cancer cells; test: ATP-dependent proliferation/viability assay, MiaPaca2; assay type: cell-based; details: Homo sapiens, MIA PaCa-2, 72 h, MiaPaca2; 10 nM DHT; 3 days; Examples 3-4, Experiment 1; read-out: IC50
Property: IC50 (µM)
All answers are understood in µM, so give the number only.

MiaPaca2 (AR low) pancreatic cancer cells IC50 of CCCCC(=O)O[C@]1(C(=O)COC(=O)CC)CC[C@H]2[C@@H]3CCC4=CC(=O)CC[C@]4(C)[C@H]3CC[C@@]21C [CB-03-10, cortexolone 17α-valerate-21-propionate] is 43

---

Here, each record is paired with measured pIC50 data.
test system: HT29 colon cancer cells; assay: In vitro proliferation, HT29 (cancer cell panel); assay type: cell-based; details: Homo sapiens, HT-29; HT29; Table IV; read-out: In vitro proliferation IC50 (micro Molar)
The read-out pIC50 is expressed as -log10 of concentration in moles per litre.

>>> print(df.to_string())
                                   compound          measured_target  result
0  CCCC(=O)OC1(C(=O)CO)CCC2C3CCC4=CC(=O)CC[C@]4(C)C3=CC[C@@]21C (single isomer, unassigned) [CB-03-04]  HT29 colon cancer cells    4.29

Now, please, on to the next compound.
The recorded pIC50 for CCCCC(=O)O[C@]1(C(=O)CO)CC[C@H]2[C@@H]3CCC4=CC(=O)CC[C@]4(C)[C@H]3CC[C@@]21C [CB-03-05, cortexolone 17α-valerate] is 4.52

---

tested on: stimulated PBMC (actively dividing cells); test: IC50 on stimulated PBMC (intrinsic toxicity); assay type: cell-based; conditions: Homo sapiens, PBMC STIMULATED, Table III, read-out: in vitro proliferation IC50 (μ/M)
Property: IC50 (µM)
Reply numerically in µM, unit not repeated.

Hey, stimulated PBMC (actively dividing cells) data for CCCCC(=O)O[C@]1(C(=O)CO)CC[C@H]2[C@@H]3CCC4=CC(=O)CC[C@]4(C)[C@H]3CC[C@@]21C [CB-03-05, cortexolone 17α-valerate] : IC50 came out at 130

---

tested on: stimulated PBMC (actively dividing cells); test: IC50 on stimulated PBMC (intrinsic toxicity); format: cell-based; details: Homo sapiens, stimulated PBMC, Example 7, Experiment 2, read-out: IC50 (microM) on Stimulated PBMC
Property: pIC50
Scale note: pIC50 = -log10(concentration in M).

Molecule	pIC50
CC(=O)O[C@]1(C(C)=O)CC[C@H]2[C@@H]3C=C(Cl)C4=CC(=O)[C@@H]5C[C@@H]5[C@]4(C)[C@H]3CC[C@@]21C [Cyproterone Acetate, Cyproterone acetate, reference compound]	4.21

# next molecule below
Result for CCCCC(=O)O[C@]1(C(=O)COC(=O)CC)CC[C@H]2[C@@H]3CCC4=CC(=O)CC[C@]4(C)[C@H]3CC[C@@]21C [CB-03-10, cortexolone 17α-valerate-21-propionate] , tested on stimulated PBMC (actively dividing cells), pIC50: 4.03

---

tested on: PC3 (AR−) prostate cancer cells; test: ATP-dependent proliferation/viability assay, PC3; type: cell-based; conditions: Homo sapiens, Table III, read-out: in vitro proliferation IC50 (μ/M)
Property: pIC50
pIC50 here is simply -log10 of the concentration when that concentration is written in mol/L.

// pIC50 lookup, compound = CCCCC(=O)O[C@]1(C(=O)CO)CC[C@H]2[C@@H]3CCC4=CC(=O)CC[C@]4(C)[C@H]3CC[C@@]21C [CB-03-05, cortexolone 17α-valerate] , result: 3.77

---

Target: wild type AR (AR-LBD) (Rattus norvegicus, UniProt P15207)
Sequence (P15207 651-882 limits assumed): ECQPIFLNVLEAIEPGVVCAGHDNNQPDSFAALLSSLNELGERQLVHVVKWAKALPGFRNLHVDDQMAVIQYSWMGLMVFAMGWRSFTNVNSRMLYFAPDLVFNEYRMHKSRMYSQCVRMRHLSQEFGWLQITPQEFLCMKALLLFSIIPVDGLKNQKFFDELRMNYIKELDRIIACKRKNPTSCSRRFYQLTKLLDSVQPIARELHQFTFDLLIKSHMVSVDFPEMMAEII
Property: IC50 (nM)
Provide only the numeric value, understood in nM.

So for CCCCC(=O)O[C@]1(C(=O)COC(=O)CC)CC[C@H]2[C@@H]3CCC4=CC(=O)CC[C@]4(C)[C@H]3CC[C@@]21C [CB-03-10, cortexolone 17α-valerate-21-propionate] , the logged IC50 turned out to be 1100

---

system: MiaPaca2 (AR low) pancreatic cancer cells; test: ATP-dependent proliferation/viability assay, MiaPaca2; type: cell-based; conditions: Homo sapiens, MIA PaCa-2, MiaPaca2; Table IV; read-out: In vitro proliferation IC50 (micro Molar)
Property: pIC50
Scale explanation: pIC50 corresponds to minus log10 of a concentration expressed in moles per litre.

Solved cases (2 shown):
Compound	pIC50
CCCCC(=O)O[C@]1(C(=O)CO)CC[C@H]2[C@@H]3CCC4=CC(=O)CC[C@]4(C)[C@H]3CC[C@@]21C [CB-03-05, cortexolone 17α-valerate]	4.23
CC(=O)O[C@]1(C(C)=O)CC[C@H]2[C@@H]3C=C(Cl)C4=CC(=O)[C@@H]5C[C@@H]5[C@]4(C)[C@H]3CC[C@@]21C [Cyproterone Acetate, Cyproterone acetate, reference compound]	4.41

The measured pIC50 associated with CCCC(=O)OC1(C(=O)CO)CCC2C3CCC4=CC(=O)CC[C@]4(C)C3=CC[C@@]21C (single isomer, unassigned) [CB-03-04] reads 3.80

Lab note: CCC(=O)O[C@]1(C(=O)CO)CC[C@H]2[C@@H]3CCC4=CC(=O)CC[C@]4(C)[C@H]3CC[C@@]21C [CB-03-01] gave pIC50 of 3.96
